# protocol_text: Metabolic stability in mouse liver microsomes
# Format: ADME, Microsome
observable: half-life (h)

[A] Cc1cnc(NC(=O)[C@H](CC2CCOCC2)c2ccc(S(=O)(=O)C3CC3)cc2)s1
[B] O=C(Nc1ncc(F)s1)[C@H](CC1CCOCC1)c1ccc(S(=O)(=O)C2CC2)cc1
Which numeric half-life is bigger, that of A or that of B ? Your answer should be the label of the entry you select. B
(B: 1.5 h, A: 0.883 h)

----------
# protocol_text: Tmax in Sprague-Dawley rat at 5 mg/10 mL/kg, po in 10% aqueous gelucire 44/14
# Format: ADME, organism-based
# measurement_parameters: in vivo, 5 mg/kg
observable: Tmax (h)
Field: numeric (h). Do not append units.

# return recorded Tmax for input `O=C(Nc1ncc(F)s1)[C@H](CC1CCOCC1)c1ccc(S(=O)(=O)C2CC2)cc1` 1

----------
# protocol_text: Plasma concentration in C57B1/6 mouse at 10 mg/kg, po after 0.5 hrs
# Format: ADME, organism-based
# Set-up: dose 10 mg/kg, route oral
observable: concentration at 0.5 h (ng/mL)

Recorded results for 4 compounds are shown here.
{"smiles_text": "CS(=O)(=O)c1ccc([C@@H](CC2CCOCC2)C(=O)Nc2nccs2)cc1", "experimental_value": 5150}
{"smiles_text": "CS(=O)(=O)c1ccc(/C(=C\\C2CCOCC2)C(=O)Nc2nccs2)cc1", "experimental_value": 3680}
{"smiles_text": "O=C(Nc1nccs1)[C@H](CC1CCOCC1)c1ccc(S(=O)(=O)C2CC2)cc1", "experimental_value": 1860}
{"smiles_text": "O=C(Nc1ncc(F)s1)[C@H](CC1CCOCC1)c1ccc(S(=O)(=O)C2CCCC2)cc1", "experimental_value": 168}

[P] Cc1cnc(NC(=O)[C@H](CC2CCOCC2)c2ccc(S(=O)(=O)C3CC3)cc2)s1
[Q] CS(=O)(=O)c1ccc([C@@H](CC2CCOCC2)C(=O)Nc2ncc(F)s2)cc1
[R] O=C(Nc1ncc(F)s1)[C@H](CC1CCOCC1)c1ccc(S(=O)(=O)C2CC2)cc1
Task field, ranking: reported concentration at 0.5 h, descending order. Write the labels in rank order as requested. Q, R, P

----------
# protocol_text: AUC (0 to infinity) in Sprague-Dawley rat at 1 mg/5 mL/kg, iv in 40% DMSO
# Type: ADME, organism-based
# Parameters: dose 5 mL/kg, time infinity, route intravenous
# measurement_parameters: plasma, 1 mg/kg
observable: AUC(0-inf) (ng·h/mL)
Field: numeric (ng·h/mL). Do not append units.

# return recorded AUC(0-inf) for input `O=C(Nc1ncc(F)s1)[C@H](CC1CCOCC1)c1ccc(S(=O)(=O)C2CC2)cc1` 1660

----------
# protocol_text: Aqueous solubility at pH 6.5 buffer
# Format: physicochemical
observable: solubility (mg/mL)

Recorded results for 5 compounds are shown here.
{"compound": "O=C(Nc1ncc(F)s1)[C@H](CC1CCOCC1)c1ccc(S(=O)(=O)C2CCC2)cc1", "unit_descriptor": "mg/mL", "experimental_value": 0.06}
{"compound": "CS(=O)(=O)c1ccc([C@@H](CC2CCOCC2)C(=O)Nc2nccs2)cc1", "unit_descriptor": "mg/mL", "experimental_value": 0.41}
{"compound": "O=C(Nc1nccs1)[C@H](CC1CCOCC1)c1ccc(S(=O)(=O)C2CC2)cc1", "unit_descriptor": "mg/mL", "experimental_value": 0.147}
{"compound": "CS(=O)(=O)c1ccc(/C(=C\\C2CCOCC2)C(=O)Nc2nccs2)cc1", "unit_descriptor": "mg/mL", "experimental_value": 0.013}
{"compound": "O=C(Nc1ncc(F)s1)[C@H](CC1CCOCC1)c1ccc(S(=O)(=O)C2CCCC2)cc1", "unit_descriptor": "mg/mL", "experimental_value": 0.024}

[a] CS(=O)(=O)c1ccc(C(CC2CCOCC2)C(=O)Nc2nccs2)cc1 (centres undefined)
[b] CS(=O)(=O)c1ccc([C@@H](CC2CCOCC2)C(=O)Nc2ncc(F)s2)cc1
[c] Cc1cnc(NC(=O)[C@H](CC2CCOCC2)c2ccc(S(=O)(=O)C3CC3)cc2)s1
[d] O=C(Nc1ncc(F)s1)[C@H](CC1CCOCC1)c1ccc(S(=O)(=O)C2CC2)cc1
Task field, ranking: reported solubility, descending order. Write the labels in rank order as requested. b, a, d, c
(b: 0.298 mg/mL, a: 0.097 mg/mL, d: 0.058 mg/mL, c: 0.04 mg/mL)

----------
# protocol_text: Half life in Sprague-Dawley rat at 5 mg/10 mL/kg, po in 10% aqueous gelucire 44/14
# Assay type: ADME, organism-based
# measurement_parameters: in vivo, 5 mg/kg
observable: half-life (h)
Field: numeric (h). Do not append units.

# return recorded half-life for input `O=C(Nc1ncc(F)s1)[C@H](CC1CCOCC1)c1ccc(S(=O)(=O)C2CC2)cc1` 3.4

----------
# protocol_text: Metabolic stability in mouse liver microsomes
# Format: ADME, Microsome
Attribute: half-life
Field: numeric (min). Do not append units.

{"smiles_text": "O=C(Nc1ncc(F)s1)[C@H](CC1CCOCC1)c1ccc(S(=O)(=O)C2CCC2)cc1", "experimental_value": 27}
{"smiles_text": "O=C(Nc1nccs1)[C@H](CC1CCOCC1)c1ccc(S(=O)(=O)C2CC2)cc1", "experimental_value": 144}
{"smiles_text": "O=C(Nc1ncc(F)s1)[C@H](CC1CCOCC1)c1ccc(S(=O)(=O)C2CCCC2)cc1", "experimental_value": 16}

Let us examine a further case.
# return recorded half-life for input `CS(=O)(=O)c1ccc([C@@H](CC2CCOCC2)C(=O)Nc2ncc(F)s2)cc1` 125

----------
# protocol_text: AUC (0 to 24 hrs) in Sprague-Dawley rat at 250 mg/kg, po
# Assay type: ADME, organism-based
# Design: time < 24 hr, dose 250 mg/kg, route oral
# measurement_parameters: plasma
observable: AUC(0-t) at 24 h (µg·h/mL)
Field: numeric (µg·h/mL). Do not append units.

# return recorded AUC(0-t) at 24 h for input `O=C(Nc1ncc(F)s1)[C@H](CC1CCOCC1)c1ccc(S(=O)(=O)C2CC2)cc1` 898

----------
# protocol_text: Clearance in Sprague-Dawley rat at 1 mg/5 mL/kg, iv in 40% DMSO
# Type: ADME, organism-based
# measurement_parameters: in vivo, 1 mg/kg
observable: clearance (mL/min/kg)
Field: numeric (mL/min/kg). Do not append units.

# return recorded clearance for input `O=C(Nc1ncc(F)s1)[C@H](CC1CCOCC1)c1ccc(S(=O)(=O)C2CC2)cc1` 10

----------
# protocol_text: AUC (0 to infinity) in Sprague-Dawley rat at 5 mg/10 mL/kg, po in 10% aqueous gelucire 44/14
# Assay type: ADME, organism-based
# Parameters: dose 10 mL/kg, time infinity, route oral
# measurement_parameters: plasma, 5 mg/kg
observable: AUC(0-inf) (ng·h/mL)
Field: numeric (ng·h/mL). Do not append units.

# return recorded AUC(0-inf) for input `O=C(Nc1ncc(F)s1)[C@H](CC1CCOCC1)c1ccc(S(=O)(=O)C2CC2)cc1` 10700

----------
# protocol_text: Metabolic stability in mouse liver microsomes
# Assay type: ADME, Microsome
observable: half-life

# return recorded half-life for input `CS(=O)(=O)c1ccc(/C(=C\C2CCOCC2)C(=O)Nc2nccs2)cc1` > 3.33 h

# return recorded half-life for input `CS(=O)(=O)c1ccc([C@@H](CC2CCOCC2)C(=O)Nc2nccs2)cc1` > 3.33 h

# return recorded half-life for input CS(=O)(=O)c1ccc(C(CC2CCOCC2)C(=O)Nc2nccs2)cc1 (stereo not drawn) > 3.33 h

Source of measurements: ChEMBL document CHEMBL1155108
